experiment: Ocular distribution of CDO in rats, single dose topical ocular vs. oral; format: in vivo, Sprague Dawley (SD) rat; details: Sprague Dawley, cornea; rat, topical eye 100 mg/ml (eye drop of 10 μl) = 1 mg, 3 h; read-out: CDO concentrations Cornea
MEASURED QUANTITY: concentration at 3 h (ng/g)
Write it as a number; the unit ng/g goes unstated.

Prompt: GET /values?readout=concentration at 3 h&item= O=S(=O)(O)c1cc(O)ccc1O [CDO, Calcium dobesilate monohydrate]
Response: 3110

====

test: Ocular distribution of CDO in rats, single dose topical ocular vs. oral; assay type: in vivo, Sprague Dawley (SD) rat; conditions: Sprague Dawley, retina; rat, oral 750 mg/Kg = 150 mg, 0.25 h; read-out: CDO concentrations Retina
MEASURED QUANTITY: concentration at 0.25 h (ng/g)
Provide only the numeric value, understood in ng/g.

Prompt: For the compound O=S(=O)(O)c1cc(O)ccc1O [CDO, Calcium dobesilate monohydrate] , what concentration at 0.25 h is on record?
Response: 670

====

assay: Ocular distribution of CDO in rats, single dose topical ocular vs. oral; type: in vivo, Sprague Dawley (SD) rat; conditions: Sprague Dawley, optic nerve; rat, oral 50 mg/Kg = 10 mg, 6 h; read-out: CDO concentrations Optic nerve
MEASURED QUANTITY: concentration at 6 h (ng/g)
Kindly provide the numeric value in ng/g only, without the unit symbol.

Prompt: Param item = O=S(=O)(O)c1cc(O)ccc1O [CDO, Calcium dobesilate monohydrate] ; retrieve measured concentration at 6 h.
Response: 410

====

assay: Ocular distribution of CDO in rabbits, single dose topical ocular vs. oral; assay type: in vivo, New Zealand White rabbit; conditions: New Zealand White, retina/choroid; rabbit, Oral 25 mg/Kg = 45 mg, 3 h; read-out: CDO μg/g tissue Retina/Choroid
MEASURED QUANTITY: concentration at 3 h (µg/g)
# number only, unit µg/g dropped from output

Prompt: I would be grateful if you could share the reported concentration at 3 h for O=S(=O)(O)c1cc(O)ccc1O [CDO, Calcium dobesilate monohydrate] .
Response: 0.28

====

experiment: Ocular distribution of CDO in rats, single dose topical ocular vs. oral; format: in vivo, Sprague Dawley (SD) rat; conditions: Sprague Dawley, retina/choroid; rat, topical eye 10 mg/ml (eye drop of 10 μl) = 0.1 mg, 0.25 h; read-out: CDO concentrations Retina/Choroid
MEASURED QUANTITY: concentration at 0.25 h (ng/g)
Only the number, expressed in ng/g, is required.

Prompt: Item under review: O=S(=O)(O)c1cc(O)ccc1O [CDO, Calcium dobesilate monohydrate] . Reported concentration at 0.25 h?
Response: 1830

====

assay: Ocular distribution of CDO in rats, single dose topical ocular vs. oral; type: in vivo, Sprague Dawley (SD) rat; conditions: Sprague-Dawley, optic nerve; rat, topical eye 10 mg/ml (eye drop of 10 μl) = 0.1 mg, 0.25 h; read-out: CDO concentrations Optic nerve
MEASURED QUANTITY: concentration at 0.25 h (ng/g)
Note: unit ng/g is implicit; provide only the numeric part.

Prompt: Look up concentration at 0.25 h: O=S(=O)(O)c1cc(O)ccc1O [CDO, Calcium dobesilate monohydrate]
Response: 5300

====

Assay: Ocular distribution of CDO in rats, single dose topical ocular vs. oral
Assay type: in vivo, Sprague Dawley (SD) rat
Details: Sprague-Dawley, optic nerve; rat, topical eye 10 mg/ml (eye drop of 10 μl) = 0.1 mg, 1 h; read-out: CDO concentrations Optic nerve
Experimental: In Sprague Dawley (SD) rat, weighing approximately 200 g, CDO was administered by topical ocular instillation (10 μl/eye) at 10 mg/ml (composition 2 of Example 1), at 100 mg/ml (composition 5 of Example 1) or by oral gavage at 50 mg/kg, at 200 mg/kg or at 750 mg/kg in aqueous solution (from compositions 1, 3 and 4, respectively, of Example 1). […] Bioanalysis of CDO was performed depending on the type of matrix. […] After centrifugation, samples were analyzed by UPLC-MS/MS. […]
MEASURED QUANTITY: concentration at 1 h (ng/g)
Give just the number in ng/g; leave the unit off.

Prompt: Can you look up the measured concentration at 1 h of O=S(=O)(O)c1cc(O)ccc1O [CDO, Calcium dobesilate monohydrate] for me?
Response: 850

The measured values listed here are drawn from patent US20200390729A1.
